System: diaphorase (Clostridium kluyveri)
Test: compounds blocking diaphorase resazurin reduction – biochemical, uHTS, resorufin fluorescence, counter-screen for diaphorase-coupled primary assays, primary screen (AID 1217)
Conditions: diaphorase resazurin-to-resorufin fluorescence, NADH, 16 min; at 20 µM
The campaign covered roughly 190,000 compounds. About 1,300 (0.68%) were called active.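 The calls were made as follows: active = primary screen inhibition at 20 µM above a set limit (cut at about 50% in these data); inactive = the rest.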 Only a selection was taken, and actives are over-represented in it overall.
Classes used: YES (active), NO (inactive)

>  <smiles_record>
COc1ccc(-c2nn(CCC#N)cc2C(=O)O)cc1

>  <class>
NO

$$$$
>  <smiles_record>
O=C(Cc1ccccc1)N1CCN(C2CCCCCC2)CC1

>  <class>
NO

$$$$
>  <smiles_record>
COc1cccc(N2C(=O)NC(=O)/C(=C\c3ccc([N+](=O)[O-])s3)C2=O)c1

>  <class>
NO

$$$$
>  <smiles_record>
COc1ccccc1N=C1SCCCN1C

>  <class>
NO

$$$$
>  <smiles_record>
COc1ccccc1N=Nc1c(O)[nH]c(=S)[nH]c1=O

>  <class>
YES

$$$$
>  <smiles_record>
O=C1N=c2ccccc2=C/C1=C\c1c(O)[nH]c(=S)[nH]c1=O

>  <class>
NO

$$$$
>  <smiles_record>
Cc1ccc2c(c1)=C/C(=C\c1c(O)[nH]c(=O)[nH]c1=O)C(=O)N=2

>  <class>
YES

$$$$
>  <smiles_record>
COc1ccc(NC(=O)c2cn(CCC#N)nc2-c2ccc([N+](=O)[O-])cc2)cc1

>  <class>
NO

$$$$
>  <smiles_record>
COc1ccccc1-n1c(O)c(C=NC2CC2)c(=O)[nH]c1=O

>  <class>
NO

$$$$
